// values below are reported Count
# target: T1, mouse CXCR4 (mouse, UniProt P70658 1-359)
# T1 construct: Full-length murine CXCR4 on transiently transfected HEK293T cells; also native on mouse lymphocytes and the EL4 line; also called murine CXCR4
# T1 sequence (P70658 whole entry): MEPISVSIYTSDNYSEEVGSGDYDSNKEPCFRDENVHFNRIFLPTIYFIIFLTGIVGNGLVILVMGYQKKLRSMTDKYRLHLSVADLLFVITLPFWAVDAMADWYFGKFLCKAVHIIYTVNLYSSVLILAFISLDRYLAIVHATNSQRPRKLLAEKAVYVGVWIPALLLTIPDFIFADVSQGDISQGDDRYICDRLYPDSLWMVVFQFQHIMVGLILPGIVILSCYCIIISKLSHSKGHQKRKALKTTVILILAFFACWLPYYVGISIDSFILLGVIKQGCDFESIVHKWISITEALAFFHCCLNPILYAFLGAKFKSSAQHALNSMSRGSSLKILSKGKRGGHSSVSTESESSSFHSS
# protocol.details: FMAT, hybridoma supernatant on HEK293T cells transiently overexpressing full-length mouse CXCR4
Field format: numeric only.

- binder: "2A4 (antibody, V domains shown, Fully human monoclonal antibody from XenoMouse hybridoma; also called mAb 2A4; Mab2A4) VH: QVQLVESGGGVVQPGRSLRLSCAASGFTFSSYGMHWVRQAPGKGLEWVAVISYDGSNKYYADSVKGRFTISRDNSKNTLYLQMNSLRAEDTAVYYCTRGGLAARRNYYYSYGTDVWGQGTTVTVSS VL: DIQMTQSPSSLSASVGDRVTITCRASQDIRNDLGWYQQKPGKAPTRLIYAASSLQSGVPSRFSGSGSGTQFTLTISSLQPEDFATYYCLQHNSYPLTFGGGTKVQIK"
  Count: 3
- binder: "5C9 (antibody, V domains shown, Fully human monoclonal antibody from XenoMouse hybridoma (lambda light chain)) VH: QVQLVESGGGVVQPGRSLRLSCAASGFTFSSYGLHWVRQSPGKGLEWVAVISYDGSKKYYADSVKGRFSISRDNSKNTLYLQMNSLRAEDTAVYYCARDRPSRYSSCMDVWGQGTTVTVSS VL: QSALTQPASVSGSPGQSITISCTGTSSDVGSNNFVSWYQQHPGKAPKLMIYEVSKRPSGVSNRFSGSKSGNTASLTISGLQAEDEADYYCCSYAGSNTLVFGGGTKLTVL"
  Count: 72

The recorded Count for 7C8 (antibody, V domains shown, Fully human monoclonal antibody from XenoMouse hybridoma) VH: QVQLVESGGGVVQPGRSLRLSCAASGFTFSSYGMHWVRQAPGKGLEWVAVIWYDGTYKYYADSVRGRFTISRDNSKNTLYLQMNSLRAEDTAVYYCARGPLLRYFDWLSDYWGQGTLVTVSS VL: DIQMTQSPSSLSASVGDRVTITCRASQGIRNDLGWYQQKPGKAPKRLIYAATSLQSGVPSRFSGSGSGTEFTLTISSLQPEDFATYYCLQHNNYPRTFGGGTKVEIK is 9
